- study_system: UniProtKB P35463
- Sequence (P35463 whole entry): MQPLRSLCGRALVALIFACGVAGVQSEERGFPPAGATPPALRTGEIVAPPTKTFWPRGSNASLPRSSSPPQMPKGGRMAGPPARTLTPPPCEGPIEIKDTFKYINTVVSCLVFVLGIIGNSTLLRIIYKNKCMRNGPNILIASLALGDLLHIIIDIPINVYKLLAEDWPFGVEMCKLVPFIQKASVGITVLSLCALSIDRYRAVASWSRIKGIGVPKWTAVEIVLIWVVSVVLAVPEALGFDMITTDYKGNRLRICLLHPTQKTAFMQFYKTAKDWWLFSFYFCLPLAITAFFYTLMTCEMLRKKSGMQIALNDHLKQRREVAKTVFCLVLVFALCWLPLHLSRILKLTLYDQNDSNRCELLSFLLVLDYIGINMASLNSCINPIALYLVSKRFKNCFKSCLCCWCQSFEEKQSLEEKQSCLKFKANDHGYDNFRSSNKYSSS
- test_name: Binding affinity towards displacement of [125 I] ET-3 from COS-7 cells transfected with porcine Endothelin B receptor
pIC50: −log10 of the molar value.
Everything with pIC50 lower than 6 is rule not met; everything else, including exactly 6, is rule met.

CCc1onc(NS(=O)(=O)c2ccc(C(C)(C)C)cc2)c1Sc1cccc(OC)c1    rule not met
COC(=O)CCCc1onc(NS(=O)(=O)c2ccc(C(C)(C)C)cc2)c1Sc1cccc(OC)c1    rule met
COc1cccc(Sc2c(NS(=O)(=O)c3ccc(C(C)(C)C)cc3)noc2CCCC(N)=O)c1    rule met
COc1cccc(Sc2c(NS(=O)(=O)c3ccc(C(C)(C)C)cc3)noc2CCCC#N)c1    rule met

As a next step, examine the compound that follows.
Assess whether reported pIC50 for `COc1cccc(Sc2c(NS(=O)(=O)c3ccc(C(C)(C)C)cc3)noc2CO)c1` sits at 6 or higher.
rule met

----------
Known IC50 of a selection of compounds
- study_system: Endothelin-1 receptor (Rattus norvegicus, UniProt P26684)
- test_name: Displacement of [125 I] ET-1 from rat aortic smooth muscle A7r5 cells transfected with Endothelin A receptor
Write the value in nM as a bare number.

Example entries begin here.
Cc1onc(NS(=O)(=O)c2ccc(N)cc2)c1Cl    3500
Cc1onc(NS(=O)(=O)c2ccc(C(C)(C)C)cc2)c1C    28000
COc1cccc(Sc2c(NS(=O)(=O)c3ccc(C(C)(C)C)cc3)noc2CCCCC=O)c1    1400
COc1cccc(Sc2c(NS(=O)(=O)c3ccc(C(C)(C)C)cc3)noc2CCO)c1    770
CCc1onc(NS(=O)(=O)c2ccc(C(C)(C)C)cc2)c1Sc1cccc(OC)c1    800

Could you share which IC50 value was measured for `COc1cccc(Sc2c(NS(=O)(=O)c3ccc(C(C)(C)C)cc3)noc2CCC=O)c1` ?
380

// repeat for `COc1cccc(Sc2c(NS(=O)(=O)c3ccc(C(C)(C)C)cc3)noc2CCCCO)c1` and report
630

// repeat for `Cc1snc(NS(=O)(=O)c2ccc(N)cc2)c1C` and report
28000

----------
- study_system: UniProtKB P26684
- Sequence (P26684 whole entry): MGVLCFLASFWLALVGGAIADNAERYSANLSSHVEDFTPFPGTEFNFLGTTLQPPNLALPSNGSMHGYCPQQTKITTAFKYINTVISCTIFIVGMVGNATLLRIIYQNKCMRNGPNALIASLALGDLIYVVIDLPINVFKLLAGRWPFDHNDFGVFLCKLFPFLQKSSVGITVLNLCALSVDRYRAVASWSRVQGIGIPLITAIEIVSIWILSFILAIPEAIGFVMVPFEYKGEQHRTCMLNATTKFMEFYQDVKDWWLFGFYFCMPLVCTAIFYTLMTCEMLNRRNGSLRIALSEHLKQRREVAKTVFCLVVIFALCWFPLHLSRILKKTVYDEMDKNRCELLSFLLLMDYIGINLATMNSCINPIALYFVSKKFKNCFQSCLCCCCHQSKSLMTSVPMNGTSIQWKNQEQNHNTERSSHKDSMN
- test_name: Displacement of [125 I] ET-1 from rat aortic smooth muscle A7r5 cells transfected with Endothelin A receptor
measured_property: pIC50
Answer as the number alone; pIC50 is minus log10 of concentration in mol/L.

COC(=O)CCCc1onc(NS(=O)(=O)c2ccc(C(C)(C)C)cc2)c1Sc1cccc(OC)c1    6.40
COc1cccc(Sc2c(NS(=O)(=O)c3ccc(C(C)(C)C)cc3)noc2CCC/C=N/O)c1    5.82

Could you share which pIC50 value was measured for `Cc1onc(NS(=O)(=O)c2ccc(N)cc2)c1I` ?
4.96

// repeat for `COc1cccc(Sc2c(NS(=O)(=O)c3ccc(C(C)(C)C)cc3)noc2CCCC#N)c1` and report
5.89

// repeat for `COc1cccc(Sc2c(NS(=O)(=O)c3ccc(C(C)(C)C)cc3)noc2CCCC(C)=O)c1` and report
5.89

// repeat for `COc1cccc(Sc2c(NS(=O)(=O)c3ccc(C(C)(C)C)cc3)noc2CCCC=O)c1` and report
5.77

----------
- study_system: UniProt P35463
- test_name: Binding affinity towards displacement of [125 I] ET-3 from COS-7 cells transfected with porcine Endothelin B receptor
- Assay type: cell-based
Known IC50 of a selection of molecules
Write the value in nM as a bare number.

COc1cccc(Sc2c(NS(=O)(=O)c3ccc(C(C)(C)C)cc3)noc2CCCC=O)c1    2
COc1cccc(Sc2c(NS(=O)(=O)c3ccc(C(C)(C)C)cc3)noc2C)c1    300

Could you share which IC50 value was measured for `COc1cccc(Sc2c(NS(=O)(=O)c3ccc(C(C)(C)C)cc3)noc2CCCCO)c1` ?
240

----------
- study_system: UniProt P26684
- Sequence (P26684 whole entry): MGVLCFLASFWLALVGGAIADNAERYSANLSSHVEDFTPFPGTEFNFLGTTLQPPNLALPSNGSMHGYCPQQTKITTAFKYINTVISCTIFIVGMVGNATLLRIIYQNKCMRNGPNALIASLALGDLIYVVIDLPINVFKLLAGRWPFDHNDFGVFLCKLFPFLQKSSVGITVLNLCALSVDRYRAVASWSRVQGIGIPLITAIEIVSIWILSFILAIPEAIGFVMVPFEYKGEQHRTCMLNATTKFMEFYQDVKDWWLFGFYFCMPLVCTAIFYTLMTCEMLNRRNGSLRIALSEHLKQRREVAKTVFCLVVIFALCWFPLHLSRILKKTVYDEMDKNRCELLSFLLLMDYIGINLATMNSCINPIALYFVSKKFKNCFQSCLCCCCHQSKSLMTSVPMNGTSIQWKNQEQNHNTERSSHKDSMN
- test_name: Displacement of [125 I] ET-1 from rat aortic smooth muscle A7r5 cells transfected with Endothelin A receptor
measured_property: IC50
The number alone won't do; follow it with the unit.

Example entries begin here.
COc1cccc(Sc2c(NS(=O)(=O)c3ccc(C(C)(C)C)cc3)noc2CCCO)c1    0.32 µM
COc1cccc(Sc2c(NS(=O)(=O)c3ccc(C(C)(C)C)cc3)noc2CCCC(N)=O)c1    6.3 µM

Please look at the following molecule next.
Could you share which IC50 value was measured for `Cc1onc(NS(=O)(=O)c2ccc(N)cc2)c1Cc1ccccc1` ?
71 µM

----------
Known IC50 of a selection of compounds
- study_system: UniProtKB P35463
- test_name: Binding affinity towards displacement of [125 I] ET-3 from COS-7 cells transfected with porcine Endothelin B receptor
- Assay type: cell-based
Write the value in µM as a bare number.

Could you share which IC50 value was measured for `COc1cccc(Sc2c(NS(=O)(=O)c3ccc(C(C)(C)C)cc3)noc2CCC=O)c1` ?
0.5

----------
- test_name: Ratio of IC50 of rat ETA receptor to that of porcine ETB receptor
measured_property: Ratio

Example entries begin here.
COc1cccc(Sc2c(NS(=O)(=O)c3ccc(C(C)(C)C)cc3)noc2CCO)c1    1.8
COc1cccc(Sc2c(NS(=O)(=O)c3ccc(C(C)(C)C)cc3)noc2CO)c1    11
COc1cccc(Sc2c(NS(=O)(=O)c3ccc(C(C)(C)C)cc3)noc2CCCC#N)c1    2.5

Could you share which Ratio value was measured for `CCc1onc(NS(=O)(=O)c2ccc(C(C)(C)C)cc2)c1Sc1cccc(OC)c1` ?
0.3

// repeat for `COc1cccc(Sc2c(NS(=O)(=O)c3ccc(C(C)(C)C)cc3)noc2CCC/C=N/O)c1` and report
18

----------
- test_name: Ratio of IC50 of rat ETA receptor to that of porcine ETB receptor
The recorded Ratio of each item maps onto one of these classes: b0 = under 2, b1 = from 2 up to 9, b2 = 9 and over

Illustrative cases are given below, each with its answer.
COc1cccc(Sc2c(NS(=O)(=O)c3ccc(C(C)(C)C)cc3)noc2CCCC(N)=O)c1    b2
COC(=O)CCCc1onc(NS(=O)(=O)c2ccc(C(C)(C)C)cc2)c1Sc1cccc(OC)c1    b0

Band assignment needed for `COc1cccc(Sc2c(NS(=O)(=O)c3ccc(C(C)(C)C)cc3)noc2CCCCC=O)c1` please.
b2

// repeat for `COc1cccc(Sc2c(NS(=O)(=O)c3ccc(C(C)(C)C)cc3)noc2CCCO)c1` and report
b1

// repeat for `COc1cccc(Sc2c(NS(=O)(=O)c3ccc(C(C)(C)C)cc3)noc2CCCCO)c1` and report
b1

// repeat for `COc1cccc(Sc2c(NS(=O)(=O)c3ccc(C(C)(C)C)cc3)noc2C)c1` and report
b0

// repeat for `COc1cccc(Sc2c(NS(=O)(=O)c3ccc(C(C)(C)C)cc3)noc2CCC=O)c1` and report
b0

// repeat for `COc1cccc(Sc2c(NS(=O)(=O)c3ccc(C(C)(C)C)cc3)noc2CCCC=O)c1` and report
b2

// repeat for `COc1cccc(Sc2c(NS(=O)(=O)c3ccc(C(C)(C)C)cc3)noc2CCCC(C)=O)c1` and report
b1

// repeat for `COc1cccc(Sc2c(NS(=O)(=O)c3ccc(C(C)(C)C)cc3)noc2CCCC(=O)O)c1` and report
b1
